Recorded values, source paper PMC5845165.

# assayName: Pharmacokinetic study in plasma of acute depressive rats after oral ZQ extract (LC-MS/MS)
# Assay type: in vivo, Sprague–Dawley rats
# assaySetup: male, Sprague-Dawley, rat, plasma, po, 20 g/kg, male SD rats subjected to FST, oral ZQ extract 20 g/kg, mean ± SD, n = 6
experimentalEndpoint: half-life (h)

Before answering, review these 4 worked examples.
COc1ccc(-c2cc(=O)c3c(OC)c(OC)c(OC)c(OC)c3o2)cc1OC    1.28
C[C@@H]1O[C@@H](O[C@H]2[C@H](Oc3cc(O)c4c(c3)O[C@H](c3ccc(O)cc3)CC4=O)O[C@H](CO)[C@@H](O)[C@@H]2O)[C@H](O)[C@H](O)[C@H]1O    1.67
O=C1C[C@@H](c2ccc(O)cc2)Oc2cc(O)cc(O)c21    4.37
C[C@@H]1O[C@@H](OC[C@H]2O[C@@H](Oc3cc(O)c4c(c3)O[C@H](c3ccc(O)cc3)CC4=O)[C@H](O)[C@@H](O)[C@@H]2O)[C@H](O)[C@H](O)[C@H]1O    1.49

A: COc1ccc([C@@H]2CC(=O)c3c(O)cc(O[C@@H]4O[C@H](CO)[C@@H](O)[C@H](O)[C@H]4O[C@@H]4O[C@@H](C)[C@H](O)[C@@H](O)[C@H]4O)cc3O2)cc1O
B: COc1ccc([C@@H]2CC(=O)c3c(O)cc(O[C@@H]4O[C@H](CO[C@@H]5O[C@@H](C)[C@H](O)[C@@H](O)[C@H]5O)[C@@H](O)[C@H](O)[C@H]4O)cc3O2)cc1O
### Prompt Could you kindly indicate whether A or B has the higher half-life value? Choose, then provide that item's label.
### Response B
